# key: entry, value: pKd
Biological target: T1, Human PDGF-BB (human, UniProt P01127 82-190)
T1 construct: Dimer of two B chains; also called hPDGF-BB; huPDGF-BB
T1 sequence (P01127 82-190 limits assumed): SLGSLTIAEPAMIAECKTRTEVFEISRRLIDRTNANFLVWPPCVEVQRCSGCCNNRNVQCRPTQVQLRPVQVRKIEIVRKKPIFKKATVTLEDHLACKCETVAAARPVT
Assay: Biacore SPR, antibody captured by anti-human Fc, PDGF-BB as analyte
pKd: −log10 of the molar value.

BINDER | OP | pKd
CL-33820-IgG (antibody, V domains shown) VH: EVTLRESGPALVKPTQTLTLTCTFSGFSLSTYGMGVGWIRQPPGKALEWLANIWWDDDKYYNPSLKNRLTISKDTSKNQVVLTMTNMDPVDTATYYCARIESSFTSYSFDYWGQGTMVTVSS VL: EIVLTQSPGTLSLSPGERATLSCKRSSGSIYDTYVSWYQQKPGQAPRLVIYSDDQRPSGIPDRFSGSGSGTDFTLTISRLEPEDFAVYYCQSYDLTIDITFGGGTKVEIK | ≥ | 12.80
CL-33701-IgG (antibody, V domains shown) VH: EVTLRESGPALVKPTQTLTLTCTFSGFSLSTYGMGVGWIRQPPGKALEWLANIWWDDDKYYNPSLKNRLTISKDTSKNQVVLTMTNMDPVDTATYYCARIESLGTSYSFDYWGQGTMVTVSS VL: EIVLTQSPGTLSLSPGERATLSCERSSGDIWDYYVSWYQQKPGQAPRLVIYADDQRPSGIPDRFSGSGSGTDFTLTISRLEPEDFAVYYCQSYDLFIDVTFGGGTKVEIK | = | 12.62
CL-33731-IgG (antibody, V domains shown) VH: EVTLRESGPALVKPTQTLTLTCTFSGFSLSTYGMGVGWIRQPPGKALEWLANIWWDDDKYYNPSLKNRLTISKDTSKNQVVLTMTNMDPVDTATYYCARIESIPTSYSFDYWGQGTMVTVSS VL: EIVLTQSPGTLSLSPGERATLSCERSSGSIWQSYVSWYQQKPGQAPRLVIYADDQRATGIPDRFSGSGSGTDFTLTISRLEPEDFAVYYCQSYDIDIDVVFGGGTKVEIK | = | 12.70
